FYI, the data here is from paper PMC6222323.

target: human recombinant AChE (hAChE) (Homo sapiens, UniProt P22303); assay: biochemical; assay type: biochemical; conditions: human recombinant AChE, 20 min preincubation at 37 °C, pH 8.0; n.a. = not active, inhibition lower than 15% at the highest tested concentration; read-out: IC50 (µM) ± SEM hAChE
Sequence (P22303 32-614): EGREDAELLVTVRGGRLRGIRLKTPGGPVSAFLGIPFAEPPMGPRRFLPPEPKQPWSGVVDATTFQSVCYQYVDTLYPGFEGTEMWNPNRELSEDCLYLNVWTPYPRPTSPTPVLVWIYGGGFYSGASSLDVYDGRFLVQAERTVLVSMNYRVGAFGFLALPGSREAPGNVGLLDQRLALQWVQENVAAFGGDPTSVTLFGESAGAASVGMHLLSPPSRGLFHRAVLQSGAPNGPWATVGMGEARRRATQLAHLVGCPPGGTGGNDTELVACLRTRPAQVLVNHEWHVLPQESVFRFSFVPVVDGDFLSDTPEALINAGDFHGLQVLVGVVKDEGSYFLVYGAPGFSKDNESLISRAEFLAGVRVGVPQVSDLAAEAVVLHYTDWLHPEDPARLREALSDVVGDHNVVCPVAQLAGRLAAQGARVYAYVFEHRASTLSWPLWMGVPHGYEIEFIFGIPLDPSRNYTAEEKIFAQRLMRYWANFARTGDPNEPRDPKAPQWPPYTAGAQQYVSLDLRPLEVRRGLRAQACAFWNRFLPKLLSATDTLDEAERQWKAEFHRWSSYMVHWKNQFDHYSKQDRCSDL
# label = 1 (yes) if IC50 < 2 µM else 0 (no)

Reference set, count: 7
{"Structure string": "CCN(CC)CCCOc1ccc(C(=O)CCc2ccc(OCCCCCCCN(C)Cc3ccccc3)cc2)cc1", "Assay system": "human recombinant AChE (hAChE) (Homo sapiens, UniProt P22303)", "Label value": "1 (yes)"}
{"Structure string": "CCN(CC)CCOc1cccc(C(=O)C=Cc2ccc(OCCCCCCCN(C)Cc3ccccc3)cc2)c1", "Assay system": "human recombinant AChE (hAChE) (Homo sapiens, UniProt P22303)", "Label value": "1 (yes)"}
{"Structure string": "CCN(CC)Cc1ccc(C(=O)C=Cc2ccc(OCCCCCCCN(C)Cc3ccccc3)cc2)cc1", "Assay system": "human recombinant AChE (hAChE) (Homo sapiens, UniProt P22303)", "Label value": "0 (no)"}
{"Structure string": "CCN(CC)CCOc1ccc(C(=O)C=Cc2ccc(OCCCCCCCN(C)Cc3ccccc3)cc2)cc1", "Assay system": "human recombinant AChE (hAChE) (Homo sapiens, UniProt P22303)", "Label value": "1 (yes)"}
{"Structure string": "CCN(CC)CCOc1ccc(C(=O)CCc2ccc(OCCCCCCCN(C)Cc3ccccc3)cc2)cc1", "Assay system": "human recombinant AChE (hAChE) (Homo sapiens, UniProt P22303)", "Label value": "0 (no)"}
{"Structure string": "CN(CCCCCCCOc1ccc(C=CC(=O)c2ccc(OCCN3CCc4ccccc4C3)cc2)cc1)Cc1ccccc1", "Assay system": "human recombinant AChE (hAChE) (Homo sapiens, UniProt P22303)", "Label value": "0 (no)"}
{"Structure string": "CCN(CC)CCCOc1ccc(C(=O)C=Cc2ccc(OCCCCCCCN(C)Cc3ccccc3)cc2)cc1", "Assay system": "human recombinant AChE (hAChE) (Homo sapiens, UniProt P22303)", "Label value": "1 (yes)"}

Let us examine a further case.
Lab log: compare recorded IC50 with 2 µM; is it strictly lower for "CN(CCCCCCCOc1ccc(C=CC(=O)c2ccc(OCCN3CCOCC3)cc2)cc1)Cc1ccccc1" ? 0 (no)

====

target: human recombinant AChE (hAChE) (Homo sapiens); assay: biochemical; type: biochemical; conditions: human recombinant AChE, 20 min preincubation at 37 °C, pH 8.0; n.a. = not active, inhibition lower than 15% at the highest tested concentration; read-out: IC50 (µM) ± SEM hAChE
Measurement type: IC50 (µM)
Response body: numeric value in µM, unit text excluded.

{"Structure string": "CCN(CC)CCCCOc1ccc(C(=O)C=Cc2ccc(OCCCCCCCN(C)Cc3ccccc3)cc2)cc1", "Assay system": "human recombinant AChE (hAChE) (Homo sapiens)", "IC50, µM": 1.06}
{"Structure string": "COc1cccc(C(=O)C=Cc2ccc(OCCCCCCCN(C)Cc3ccccc3)cc2)c1", "Assay system": "human recombinant AChE (hAChE) (Homo sapiens)", "IC50, µM": 105}
{"Structure string": "COc1ccc(C(=O)C=Cc2ccc(OCCCCCCCN(C)Cc3ccccc3)cc2)cc1", "Assay system": "human recombinant AChE (hAChE) (Homo sapiens)", "IC50, µM": 98.5}

Turning now to a further record.
Sample "CN(CCCCCCCOc1ccc(C=CC(=O)c2ccc(OCCN3CCC(n4c(=O)[nH]c5ccccc54)CC3)cc2)cc1)Cc1ccccc1" — what was its IC50? 13.5

====

biological target: human recombinant AChE (hAChE) (Homo sapiens, UniProt P22303); assay: biochemical; assay type: biochemical; settings: calculated as IC50 hBuChE/hAChE ratio
# label = y if SI: selectivity index for AChE < 0.3 else n

Reference set, count: 3
{"Structure string": "CN(CCCCCCCOc1ccc(C=CC(=O)c2ccc(OCCN3CCOCC3)cc2)cc1)Cc1ccccc1", "Label value": "y"}
{"Structure string": "CN(CCCCCCCOc1ccc(C=CC(=O)c2ccc(OCCN3CCC(n4c(=O)[nH]c5ccccc54)CC3)cc2)cc1)Cc1ccccc1", "Label value": "y"}
{"Structure string": "CCN(CC)CCOc1cccc(C(=O)C=Cc2ccc(OCCCCCCCN(C)Cc3ccccc3)cc2)c1", "Label value": "n"}

Lab log: compare recorded SI: selectivity index for AChE with 0.3; is it strictly lower for "CCN(CC)CCCCOc1ccc(C(=O)CCc2ccc(OCCCCCCCN(C)Cc3ccccc3)cc2)cc1" ? n

Lab log: compare recorded SI: selectivity index for AChE with 0.3; is it strictly lower for "CCN(CC)CCCOc1ccc(C(=O)CCc2ccc(OCCCCCCCN(C)Cc3ccccc3)cc2)cc1" ? n

Lab log: compare recorded SI: selectivity index for AChE with 0.3; is it strictly lower for "CN(CCCCCCCOc1ccc(C=CC(=O)c2ccc(OCCN3CCCCC3)cc2)cc1)Cc1ccccc1" ? n

Lab log: compare recorded SI: selectivity index for AChE with 0.3; is it strictly lower for "COc1cccc(C(=O)C=Cc2ccc(OCCCCCCCN(C)Cc3ccccc3)cc2)c1" ? y

====

biological target: human recombinant AChE (hAChE) (Homo sapiens, UniProt P22303); assay: biochemical; format: biochemical; settings: human recombinant AChE, 20 min preincubation at 37 °C, pH 8.0; n.a. = not active, inhibition lower than 15% at the highest tested concentration; read-out: IC50 (µM) ± SEM hAChE
Measurement type: IC50 (µM)
Response body: numeric value in µM, unit text excluded.

{"Compound": "CN(CCCCCCCOc1ccc(C=CC(=O)c2ccc(OCCN3CCCCC3)cc2)cc1)Cc1ccccc1 [compound 7]", "Assay system": "human recombinant AChE (hAChE) (Homo sapiens, UniProt P22303)", "Measurement type": "IC50", "Reported value": 1.25}
{"Compound": "CCN(CC)CCCOc1cccc(C(=O)C=Cc2ccc(OCCCCCCCN(C)Cc3ccccc3)cc2)c1 [compound 14]", "Assay system": "human recombinant AChE (hAChE) (Homo sapiens, UniProt P22303)", "Measurement type": "IC50", "Reported value": 5.78}

Turning now to a further record.
Sample CCN(CC)CCCCOc1ccc(C(=O)CCc2ccc(OCCCCCCCN(C)Cc3ccccc3)cc2)cc1 [compound 18] — what was its IC50? 2.46

====

Each entry below lists one item and its recorded IC50 value.
molecular target: BuChE from human serum (hBuChE) (Homo sapiens); assay: biochemical; format: biochemical; settings: BuChE from human serum, 20 min preincubation at 37 °C, pH 8.0; n.a. = not active, inhibition lower than 15% at the highest tested concentration; read-out: IC50 (µM) ± SEM hBuChE
Sequence (P06276 29-602): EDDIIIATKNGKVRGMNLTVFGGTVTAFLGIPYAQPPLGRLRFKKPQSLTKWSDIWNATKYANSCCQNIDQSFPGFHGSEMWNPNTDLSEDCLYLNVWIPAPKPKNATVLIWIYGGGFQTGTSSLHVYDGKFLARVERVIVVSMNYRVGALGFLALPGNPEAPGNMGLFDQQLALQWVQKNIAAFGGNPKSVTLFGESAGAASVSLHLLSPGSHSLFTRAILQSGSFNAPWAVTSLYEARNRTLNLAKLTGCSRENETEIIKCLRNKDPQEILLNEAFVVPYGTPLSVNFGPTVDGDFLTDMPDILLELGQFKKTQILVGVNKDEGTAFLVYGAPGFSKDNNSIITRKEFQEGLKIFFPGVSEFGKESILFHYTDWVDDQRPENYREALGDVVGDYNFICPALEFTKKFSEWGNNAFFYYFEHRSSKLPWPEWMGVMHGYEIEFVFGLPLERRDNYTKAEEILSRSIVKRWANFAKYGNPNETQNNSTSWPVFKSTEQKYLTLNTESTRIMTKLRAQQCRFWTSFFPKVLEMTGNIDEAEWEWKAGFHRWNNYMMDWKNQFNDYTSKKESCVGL
Response body: numeric value in µM, unit text excluded.

# annotated cases, reported IC50 shown
{"Structure string": "CCN(CC)CCCOc1ccc(C(=O)C=Cc2ccc(OCCCCCCCN(C)Cc3ccccc3)cc2)cc1", "Readout unit": "µM", "IC50": 2.38}
{"Structure string": "CCN(CC)CCCOc1ccc(C(=O)CCc2ccc(OCCCCCCCN(C)Cc3ccccc3)cc2)cc1", "Readout unit": "µM", "IC50": 5.04}

Sample "CN(CCCCCCCOc1ccc(C=CC(=O)c2ccc(OCCN3CCCCC3)cc2)cc1)Cc1ccccc1" — what was its IC50? 19.7

Sample "COc1ccc(C(=O)C=Cc2ccc(OCCCCCCCN(C)Cc3ccccc3)cc2)cc1" — what was its IC50? 2.85

Sample "CCN(CC)CCCCOc1ccc(C(=O)CCc2ccc(OCCCCCCCN(C)Cc3ccccc3)cc2)cc1" — what was its IC50? 12.4

Sample "CN(CCCCCCCOc1ccc(C=CC(=O)c2ccc(OCCN3CCC(n4c(=O)[nH]c5ccccc54)CC3)cc2)cc1)Cc1ccccc1" — what was its IC50? 3.93

Sample "CCN(CC)CCOc1ccc(C(=O)C=Cc2ccc(OCCCCCCCN(C)Cc3ccccc3)cc2)cc1" — what was its IC50? 19.9

Sample "COc1cccc(C(=O)C=Cc2ccc(OCCCCCCCN(C)Cc3ccccc3)cc2)c1" — what was its IC50? 8.58

Sample "CCN(CC)CCOc1ccc(C(=O)CCc2ccc(OCCCCCCCN(C)Cc3ccccc3)cc2)cc1" — what was its IC50? 20.2

Sample "CCN(CC)CCOc1cccc(C(=O)C=Cc2ccc(OCCCCCCCN(C)Cc3ccccc3)cc2)c1" — what was its IC50? 0.92

Sample "CCN(CC)CCCCOc1ccc(C(=O)C=Cc2ccc(OCCCCCCCN(C)Cc3ccccc3)cc2)cc1" — what was its IC50? 3.7

Sample "CCN(CC)Cc1ccc(C(=O)C=Cc2ccc(OCCCCCCCN(C)Cc3ccccc3)cc2)cc1" — what was its IC50? 8.83

Sample "CN(CCCCCCCOc1ccc(C=CC(=O)c2ccc(OCCN3CCOCC3)cc2)cc1)Cc1ccccc1" — what was its IC50? 11

Sample "CCN(CC)CCCOc1cccc(C(=O)C=Cc2ccc(OCCCCCCCN(C)Cc3ccccc3)cc2)c1" — what was its IC50? 1.82

Sample "CN(CCCCCCCOc1ccc(C=CC(=O)c2ccc(OCCN3CCc4ccccc4C3)cc2)cc1)Cc1ccccc1" — what was its IC50? 3.87
